// provenance: patent US12686690B2

Molecular target: hOX2R (Homo sapiens, UniProt O43614)
Sequence (O43614 1-444): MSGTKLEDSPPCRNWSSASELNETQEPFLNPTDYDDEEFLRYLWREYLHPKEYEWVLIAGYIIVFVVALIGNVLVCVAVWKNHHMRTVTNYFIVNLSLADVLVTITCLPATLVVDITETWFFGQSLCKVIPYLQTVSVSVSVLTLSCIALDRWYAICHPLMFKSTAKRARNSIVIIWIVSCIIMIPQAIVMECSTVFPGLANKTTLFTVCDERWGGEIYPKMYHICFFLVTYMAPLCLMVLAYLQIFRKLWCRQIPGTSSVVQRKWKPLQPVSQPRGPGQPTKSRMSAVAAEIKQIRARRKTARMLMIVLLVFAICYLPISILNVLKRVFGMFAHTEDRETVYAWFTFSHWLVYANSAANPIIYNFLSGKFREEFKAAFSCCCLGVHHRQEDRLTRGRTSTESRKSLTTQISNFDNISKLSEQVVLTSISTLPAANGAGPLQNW
Assay: hOX2R IPone assay (orexin receptor agonism)
Details: orexin receptor agonist, IPone readout; read-out: hOX2R_IPone EC50
pEC50: −log10 of the molar value.
Listed compounds paired with reported pEC50
Result type: pEC50

# Compound, Result type, Readout number
rows = [
    ("CCN1C(=O)N[C@@H](CCC(F)(F)F)CCCCCOc2nc(cn3ccnc23)-c2cc(ncc2OC)[C@H]1C", "pEC50", 8.85),
    ("CCN1C(=O)N[C@@H](CC(F)(F)F)CCCCOc2nc(cn3ncnc23)-c2cc(ncc2OC)C1C(F)(F)F (stereo partly shown)", "pEC50", 5.62),
    ("CCN1C(=O)N[C@@H](CCC(F)(F)F)CCCCCOc2nc(cn3ccnc23)-c2nc(ccc2OC)[C@H]1C", "pEC50", 9.22),
    ("CCN1C(=O)N[C@@H](CCC(F)(F)F)CCCCCOc2cc(cn3ccnc23)-c2cc(ncn2)C1C (single isomer, unassigned) [Example 96A]", "pEC50", 7.92),
    ("CCN1C(=O)N[C@@H](CCC(F)(F)F)CCCCCCc2nc(cn3ccnc23)-c2cc(ncc2OC)[C@H]1C", "pEC50", 8.48),
    ("CCN1C(=O)NC(CC2CC2)CCCCCOc2nc(cn3ccnc23)-c2cc(ncc2OC)[C@H]1C (single isomer, unassigned) [Example 55B]", "pEC50", 9.22),
    ("CCN1C(=O)N[C@@H](CCC(F)(F)F)CCCCOCc2nc(cn3ccnc23)-c2cc(ncc2OC)[C@H]1C", "pEC50", 8.22),
]

====

Target: hOX2R (Homo sapiens)
Sequence (O43614 1-444): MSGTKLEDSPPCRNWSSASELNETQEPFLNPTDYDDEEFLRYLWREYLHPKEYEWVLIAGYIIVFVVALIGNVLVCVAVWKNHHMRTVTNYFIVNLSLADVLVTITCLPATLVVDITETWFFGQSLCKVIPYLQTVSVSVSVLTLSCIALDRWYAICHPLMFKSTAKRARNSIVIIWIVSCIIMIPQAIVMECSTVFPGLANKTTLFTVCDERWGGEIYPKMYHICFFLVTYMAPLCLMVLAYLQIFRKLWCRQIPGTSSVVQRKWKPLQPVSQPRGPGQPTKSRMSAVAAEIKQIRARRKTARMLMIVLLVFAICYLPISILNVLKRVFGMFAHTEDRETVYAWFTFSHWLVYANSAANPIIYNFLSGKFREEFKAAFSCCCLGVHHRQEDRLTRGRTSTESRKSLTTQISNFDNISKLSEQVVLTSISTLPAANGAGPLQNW
Experiment: hOX2R IPone assay (orexin receptor agonism)
Settings: orexin receptor agonist, IPone readout; read-out: hOX2R_IPone EC50
Just so you know, the groups by EC50 go like this: low-valued: < 5 nM; mid-valued: ≥ 5 nM and < 10 nM; high-valued: ≥ 10 nM

# Compound, Assigned label
data = [
    ("CCN1C(=O)N[C@@H](CF)CCCCCOc2nc(cn3ccnc23)-c2cc(ncc2OC)[C@H]1C", "mid-valued"),
    ("CCN1C(=O)N[C@@H](CCC(C)(F)F)CCCCCOc2nc(cc3ncnn23)-c2cc(ncc2OC)[C@H]1C", "low-valued"),
    ("CCN1C(=O)NC2CN(CCCCOc3nc(cn4ccnc34)-c3cc(ncc3OC)[C@H]1C)CC2C(F)(F)F (single isomer, unassigned)", "low-valued"),
    ("CCN1C(=O)NC(C#N)CCCCCOc2nc(cn3ccnc23)-c2cc(ncc2OC)[C@H]1C (single isomer, unassigned)", "high-valued"),
    ("CCN1C(=O)N[C@@H](CCC(F)(F)F)COCCCOc2nc(cn3ncnc23)-c2ccnc(c2F)[C@H]1C (single isomer, unassigned)", "mid-valued"),
    ("CCN1C(=O)NC(CCOC(F)(F)F)CCCCCOc2nc(cn3ccnc23)-c2cc(ncc2OC)[C@H]1C (single isomer, unassigned) [Example 73A]", "mid-valued"),
    ("CCN1C(=O)NCCOCCOc2nc(cn3ccnc23)-c2cccc(c2)[C@H]1C", "high-valued"),
    ("CCN1C(=O)NC(C2CC(F)(F)C2)CCCCCOc2nc(cn3ccnc23)-c2cc(ncc2OC)[C@H]1C (stereo partly shown)", "low-valued"),
    ("CCN1C(=O)NC(C2CC2)CCCCCOc2nc(cn3ccnc23)-c2cc(ncc2OC)[C@H]1C (single isomer, unassigned) [Example 57A]", "high-valued"),
    ("CCN1C(=O)NC(CCCOC)CCCCCOc2nc(cn3ccnc23)-c2cc(ncc2OC)[C@H]1C (single isomer, unassigned) [Example 60A]", "high-valued"),
    ("CCN1C(=O)N[C@@H](CCC(C)(F)F)COCCCOc2nc(cn3ncnc23)-c2cc(ncc2C)[C@H]1C", "low-valued"),
]
